biological target: T1, human IL-8 (human, UniProt P10145 23-99, limits assumed); assay: SPR Biacore T200, Protein A/G capture, pH 5.8, 37C;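 also: antibodies captured by Protein A/G amine-coupled onto a CM4 sensor chip, with kinetic parameters derived using Biacore T200 Evaluation Software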
T1 construct: also called hIL-8; hIL8
T1 sequence (P10145 23-99 limits assumed): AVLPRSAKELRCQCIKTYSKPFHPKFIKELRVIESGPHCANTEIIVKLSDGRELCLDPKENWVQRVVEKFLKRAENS
Field 'label' (enum: yes (1) / no (0)). Set to yes (1) when koff is strictly under 0.005 s⁻¹; else no (0).

query: Is koff strictly under 0.005 s⁻¹ for the entry H1041/L0395 (antibody, human IgG1, kappa, name in Kabat numbering, V domains shown) VH: QVQLVESGGGLVQPGGSLRLSCAASGFTFSEYYLSWVRQAPGKGLEWVGLIRNKDNGYHPEYSASVKGRFTISRDDSKNSLYLTMSDLKTEDTAVYYCARENHRYDVELAYWGQGTLVTVSS VL: DIQMTQSPSSLSASVGDRVTITCRASEIIYSYLAWYQQKPGKAPKLLIYKAKTHADGVPSRFSGSGSGTDFTFTISSLQPEDIATYYCKHHFGFPRTFGQGTKVEIKR ?
result: no (0)

query: Is koff strictly under 0.005 s⁻¹ for the entry H1049/L0395 (antibody, human IgG1, kappa, name in Kabat numbering, V domains shown) VH: QVQLVESGGGLVQPGGSLRLSCAASGFTFDKYYLSWVRQAPGKGLEWVGLIRNKDNYHTPEYSASVKGRFTISRDDSKNSLYLTMSDLKTEDTAVYYCARENHRYDVELAYWGQGTLVTVSS VL: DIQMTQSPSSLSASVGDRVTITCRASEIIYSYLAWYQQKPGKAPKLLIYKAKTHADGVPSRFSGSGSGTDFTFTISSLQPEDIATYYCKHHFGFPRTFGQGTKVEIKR ?
result: yes (1)

query: Is koff strictly under 0.005 s⁻¹ for the entry H1037/L0442 (antibody, human IgG1, kappa, name in Kabat numbering, V domains shown, L442 = L395 + S31E) VH: QVQLVESGGGLVQPGGSLRLSCAASGFTFDKYYLSWVRQAPGKGLEWVGLIRNKDNYHHPEYSASVKGRFTISRDDSKNSLYLTMSDLKTEDTAVYYCARENHRYDVELAYWGQGTLVTVSS VL: DIQMTQSPSSLSASVGDRVTITCRASEIIYEYLAWYQQKPGKAPKLLIYKAKTHADGVPSRFSGSGSGTDFTFTISSLQPEDIATYYCKHHFGFPRTFGQGTKVEIKR ?
result: no (0)

query: Is koff strictly under 0.005 s⁻¹ for the entry H89/L118 (H89-IgG1 / L118-k0MT) (antibody, V domains shown, also called H0089/L0118) VH: QVQLVESGGGLVQPGGSLRLSCAASGFTFSDYYLSWVRQAPGKGLEWVGLIRNKANGYTREYSASVKGRFTISRDDSKNSLYLQMSSLKTEDTAVYYCARENHRYDVELAYWGQGTLVTVSS VL: DIQMTQSPSSLSASVGDRVTITCRASEIIYSYLAWYQQKPGKAPKLLIYHAKTHADGVPSRFSGSGSGTDFTFTISSLQPEDIATYYCKHHFGFPRTFGQGTKVEIKR ?
result: no (0)
